System Name: T1, cynomolgus EREG (Biacore analyte) (cynomolgus monkey, UniProt O14944 63-108 (human entry), limits assumed)
T1 construct: also called cynomolgus monkey EREG; cEREG
T1 sequence (O14944 other isoform, or with tags, fused parts or gaps limits assumed): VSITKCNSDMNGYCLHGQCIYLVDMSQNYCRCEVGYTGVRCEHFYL
Assay Text: SPR (Biacore T100), antibody captured on Protein A, EREG as analyte, single-cycle kinetics
Assay Readout: Kd
Value and unit, in that order.

H206-G1d/L73-k (antibody, human IgG1, kappa, V domains shown) VH: QDQLVQSGAEVKNPGASVKVSCKASGFNIKDTYIQWVRQAPGQGLEWMGRIDPLRRQTKYREKFEGRVTITADTSTNTAYMELSSLRSEDTAVYYCVRSGREFDFWGQGTLVTVSS VL: DIQMTQSPSSLSASVGDRVTITCRASQDIHKYIAWYQQKPGQAPRLLIQYTSTLQPGVPSRFSGSGSGTDYTFTISSLQPEDIATYYCLQYEQLRTFGGGTKVEIKR : 0.45 nM
H240-G1d/L53-k (antibody, human IgG1, kappa, V domains shown) VH: QDQLVQSGAEVKKPGASVKVSCKASGFNIKDTYIQWVRQAPGQGLEWMGRIDPLRKQTKYREKFEGRVTITADTSTNTAYMELSSLRSEDTAVYYCVRSGREFDYWGQGTLVTVSS VL: DIQMTQSPSSLSASVGDRVTITCRASQDIHKYIAWYQQKPGQAPRLLIQYTSTLQPGVPSRFSGSGSGTDYTFTISSLQPEDIATYYCLQYDNLRTFGGGTKVEIKR : 1.5 nM
H206-G1d/L53-k (antibody, human IgG1, kappa, V domains shown) VH: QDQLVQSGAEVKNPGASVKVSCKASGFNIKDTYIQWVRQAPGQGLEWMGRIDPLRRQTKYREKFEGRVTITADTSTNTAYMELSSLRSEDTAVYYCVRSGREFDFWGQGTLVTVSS VL: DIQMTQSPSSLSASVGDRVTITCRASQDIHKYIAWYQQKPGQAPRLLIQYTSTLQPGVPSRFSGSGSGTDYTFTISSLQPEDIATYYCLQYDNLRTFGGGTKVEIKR : 0.94 nM

Recorded result, H87-G1d/LB-k (antibody, human IgG1, kappa, V domains shown) VH: QDQLVQSGAEVKKPGASVKVSCKASGFNIKDTYIQWVRQAPGQGLEWMGRIDPLTGQTKYQEKFEGRVTITADTSTNTAYMELSSLRSEDTAVYYCVRSGTSFDFWGQGTLVTVSS VL: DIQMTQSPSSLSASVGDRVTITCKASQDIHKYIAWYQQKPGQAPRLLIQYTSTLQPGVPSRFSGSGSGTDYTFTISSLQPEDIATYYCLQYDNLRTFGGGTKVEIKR , Kd: 5.2 nM
